Where do these numbers come from? They come from patent US8952024B2.

- Tested on: corn (Zea mays)
- PROTOCOL_SUMMARY: Test A pre-/postemergence plant response
- Type: in vivo
- CONDITION_NOTES: Postemergence, 500 g ai/ha; 0 to 100 scale, 0 = no effect, 100 = complete control; approx. ten days
Reported Plant response rating, Corn values follow for various compounds
Could you keep your reply to the number by itself?

>  <SMILES_CODE>
Cc1ccc(C)c(-n2c(-c3ccccc3)ncc(C(=O)C3=C(O)CCCC3=O)c2=O)c1

>  <NUMERIC_READOUT>
10

$$$$
>  <SMILES_CODE>
CCCn1c(-c2ccc(OC)cc2)ncc(C(=O)C2=C(O)CCCC2=O)c1=O

>  <NUMERIC_READOUT>
20

$$$$
>  <SMILES_CODE>
O=C1CCCC(O)=C1C(=O)c1cnc(-c2cccs2)n(-c2ccccc2)c1=O

>  <NUMERIC_READOUT>
60

$$$$

Now for a further compound.
Name the recorded Plant response rating, Corn for `Cc1ccc(-n2c(-c3ccccc3)ncc(C(=O)C3=C(O)CCCC3=O)c2=O)c(Cl)c1` .
10
